# Test system: RBM10 RRM1-ZnF-RRM2 (GST-tagged construct);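 note: 20 pmol protein with 1.5 nmol RNA pool for 30 min at 4°C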
# PROCEDURE_DETAILS: RNAcompete 7-mer binding Z-score; higher = stronger binding preference
In all, about 16,000 sequences were measured (“Z-score”: median about -0.37, highest 2% from about 3.1 on). This excerpt belongs to a sample that is enriched for the highest values.
# RNAcompete 7-mer binding Z-score listing for each entry below
MEASURE_NAME: RNAcompete 7-mer binding Z-score

# SEQUENCE_CODE, OBSERVED
data = [
    ("CUAGGGU", 2),
    ("GAGGGCA", 1.99),
    ("AGGGGGG", 2.05),
]

Every entry's value here was drawn from the supplement of paper PMC5499739.
